biological target: human TREX1 (Homo sapiens, UniProt Q9NSU2); construct: N-terminally His-Tev tagged full length human TREX1; made in house; host or cells: E. coli; experiment: TREX1 kinetics assays (TR-FRET association and dissociation with biotinylated probe); format: binding; conditions: hTREX1, 25° C., global fit Kintek Explorer
Sequence (Q9NSU2 whole entry): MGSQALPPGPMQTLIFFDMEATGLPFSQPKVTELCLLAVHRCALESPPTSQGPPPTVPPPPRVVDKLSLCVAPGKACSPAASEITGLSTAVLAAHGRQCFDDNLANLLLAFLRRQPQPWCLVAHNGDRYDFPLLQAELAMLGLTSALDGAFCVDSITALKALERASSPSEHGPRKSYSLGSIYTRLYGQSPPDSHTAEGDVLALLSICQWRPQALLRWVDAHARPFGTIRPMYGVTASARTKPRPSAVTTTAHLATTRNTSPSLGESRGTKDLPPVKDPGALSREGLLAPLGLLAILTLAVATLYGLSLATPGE
kon listing for selected compounds.
Give just the numeric value; M⁻¹ s⁻¹ need not be written.

CC(c1nc(C(=O)Nc2cnoc2)c(O)c(=O)n1C)C(c1cc(F)cc(F)c1)c1ccccc1C#N (single isomer, unassigned) [Example 11 Isomer 3] ... 257000
CC(c1nc(C(=O)Nc2cnoc2)c(O)c(=O)n1C)C(c1ccccc1)c1cc(F)ccc1C#N (single isomer, unassigned) [Example 6 Isomer 4] ... 173000
CC(c1nc(C(=O)Nc2cnoc2)c(O)c(=O)n1C)C(c1ccccc1C#N)c1ccccc1C#N (single isomer, unassigned) [Example 4 Isomer 2] ... 907000
CC(c1nc(C(=O)Nc2cnoc2)c(O)c(=O)n1C)C(c1ccccc1)c1cc(Cl)ccc1C#N (single isomer, unassigned) [Example 8 Isomer 2] ... 116000

Enquiry: # kon lookup, item CC(c1nc(C(=O)Nc2cnoc2)c(O)c(=O)n1C)C(c1ccccc1)c1ccc(Cl)cc1C#N (single isomer, unassigned) [Example 9 Isomer 4]
Return: 178000

Enquiry: What value of kon has been recorded for this entry: C[C@H](c1nc(C(=O)Nc2cnoc2)c(O)c(=O)n1C)C(c1ccccc1Cl)c1ccccc1Cl (single isomer, unassigned) [Example 15 Isomer 1]
Return: 260000
